Recorded FACS reading by entry
# target-or-system: T1, Claudin 18.2 (CLDN18.2), expressed on CHOS-CLDN 18.2 / HEK293-CLDN 18.2 / HCC827-CLDN 18.2 cells (human, UniProt P56856-2 1-261)
# T1 construct: whole, on cells; The species is not repeated for the CHOS-CLDN 18.2 cells; also called claudin-18A2
# test-name: FACS, CHOS-CLDN18.2 cells, 0.078 µg/ml
// no unit, no text: just the number

Problem: State the recorded FACS reading for this entry: QP192193 (antibody, human IgG1, V domains shown, Chimeric; also called 40F1; mouse-derived chimeric antibody QP192193) VH: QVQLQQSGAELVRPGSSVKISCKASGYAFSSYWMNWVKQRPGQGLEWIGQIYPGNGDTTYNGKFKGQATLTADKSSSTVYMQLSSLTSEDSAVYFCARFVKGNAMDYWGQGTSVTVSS VL: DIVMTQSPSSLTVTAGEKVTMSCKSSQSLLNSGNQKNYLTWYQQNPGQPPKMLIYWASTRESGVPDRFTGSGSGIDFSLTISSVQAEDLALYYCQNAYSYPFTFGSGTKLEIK
Solution: 27800

Problem: Looking for the measured FACS reading of QP14451442 (antibody, human IgG1, kappa, V domains shown, Humanized from QP192193) VH: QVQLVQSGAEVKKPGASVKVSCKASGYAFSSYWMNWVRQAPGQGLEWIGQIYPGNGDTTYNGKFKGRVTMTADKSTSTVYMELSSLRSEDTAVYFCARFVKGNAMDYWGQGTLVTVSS VL: DIVMTQSPDSLAVSLGERATISCKSSQSLLNSGNQKNYLTWYQQKPGQPPKMLIYWASTRESGVPDRFSGSGSGIDFTLTISSVQAEDVAVYYCQNAYSYPFTFGQGTKLEIKR , can you help?
Solution: 29800

Problem: Need FACS reading, item QP024025 (antibody, human IgG1, V domains shown, also called IMAB362; 175D10(IMAB362)) VH: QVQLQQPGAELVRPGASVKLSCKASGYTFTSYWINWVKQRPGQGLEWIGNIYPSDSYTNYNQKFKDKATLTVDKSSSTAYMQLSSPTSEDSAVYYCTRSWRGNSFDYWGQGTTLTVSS VL: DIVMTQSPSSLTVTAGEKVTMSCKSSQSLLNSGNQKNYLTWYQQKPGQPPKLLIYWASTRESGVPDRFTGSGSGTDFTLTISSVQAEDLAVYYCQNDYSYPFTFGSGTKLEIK
Solution: 18200

Problem: Could you share which FACS reading value was measured for QP14441441 (antibody, human IgG1, kappa, V domains shown, Humanized from QP192193) VH: QVQLVQSGAEVKKPGASVKVSCKASGYAFSSYWMNWVRQAPGQGLEWIGQIYPGNGDTTYNGKFKGRVTMTADKSTSTVYMELSSLRSEDTAVYYCARFVKGNAMDYWGQGTLVTVSS VL: DIVMTQSPDSLAVSLGERATISCKSSQSLLNSGNQKNYLTWYQQKPGQPPKLLIYWASTRESGVPDRFSGSGSGIDFTLTISSVQAEDVAVYYCQNAYSYPFTFGQGTKLEIKR ?
Solution: 27300
